- Test system: P. aeruginosa expressing IMP-1, efflux+ (MB9798)
- Type: cell-based, Pseudomonas aeruginosa
- condition-details: ratio MITC95 PA_9798/MITC95 PA_9799
Efflux ratio strictly less than 2 = y. Otherwise n.

compound	classification
NCCS(=O)(=O)c1ccc(-c2cccc(N3CCCC3=O)n2)c(-c2nnn[nH]2)c1S(N)(=O)=O.O=C(O)C(F)(F)F [Example 147]	n
Nc1nc2c(-c3ccc(S(=O)(=O)[C@H]4CCNC4)c(S(N)(=O)=O)c3-c3nn[nH]n3)cccc2o1 [Example 190]	y
NS(=O)(=O)c1c(S(=O)(=O)C2CNC2)ccc(-c2cccc3[nH]c(C(=O)O)nc23)c1-c1nn[nH]n1 [Example 253]	y
NCCNC(=O)c1cc(-c2ccc(S(=O)(=O)CCN)c(S(N)(=O)=O)c2-c2nn[nH]n2)cnc1N [compound 337]	n
NS(=O)(=O)c1c(SC2CNC2)ccc(-c2ccc(NS(=O)(=O)C3CC3)cc2)c1-c1nn[nH]n1 [Example 243]	n
CCOC(=O)N1CCC(S(=O)(=O)c2ccc(-c3cccc4nc(N)[nH]c34)c(-c3nn[nH]n3)c2S(N)(=O)=O)CC1 [Example 46]	n
